experimental-target: furin, P09958;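 further: purified furin at 1:10 enzyme:substrate in 50 mM HEPES pH 7.5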
Sequence (P09958 whole entry): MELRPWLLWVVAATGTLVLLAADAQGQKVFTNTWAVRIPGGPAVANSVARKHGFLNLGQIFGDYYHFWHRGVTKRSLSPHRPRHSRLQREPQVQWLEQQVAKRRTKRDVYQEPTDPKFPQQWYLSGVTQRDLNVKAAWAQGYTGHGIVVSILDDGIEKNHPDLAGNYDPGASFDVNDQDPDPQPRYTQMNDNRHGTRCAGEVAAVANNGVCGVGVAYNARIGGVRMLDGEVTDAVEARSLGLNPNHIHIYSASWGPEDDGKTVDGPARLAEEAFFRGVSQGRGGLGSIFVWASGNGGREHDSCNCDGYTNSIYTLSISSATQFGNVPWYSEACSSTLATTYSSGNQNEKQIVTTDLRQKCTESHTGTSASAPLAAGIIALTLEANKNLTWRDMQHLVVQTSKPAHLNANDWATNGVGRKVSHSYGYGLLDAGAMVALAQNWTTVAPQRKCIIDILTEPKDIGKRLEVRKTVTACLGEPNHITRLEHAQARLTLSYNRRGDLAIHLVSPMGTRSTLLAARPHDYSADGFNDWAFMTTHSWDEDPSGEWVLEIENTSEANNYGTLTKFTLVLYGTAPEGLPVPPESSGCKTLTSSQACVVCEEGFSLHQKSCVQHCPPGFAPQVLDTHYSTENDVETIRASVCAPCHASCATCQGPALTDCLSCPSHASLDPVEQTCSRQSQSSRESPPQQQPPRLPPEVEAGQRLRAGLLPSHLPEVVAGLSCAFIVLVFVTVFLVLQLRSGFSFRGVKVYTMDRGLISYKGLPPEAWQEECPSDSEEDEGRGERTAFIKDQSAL
test-details: furin cleavage Z-score vs untreated control; higher = more cleavage, active = 3.5 or more, inactive = 1 or less, 8 variable residues between constant flanks
study-conditions: 30 min
The list shows a part of the results. The hit rate among all sequences tested is not known here.
furin cleavage Z-score: recorded values
observed-property: furin cleavage Z-score

CARCVRDCDPAGNASASA [FS-3243] : 2.77
CAEDGVNYATAGNASASA [HC240] : -0.298
CARCKRGMKKAGNASASA [FS-1818] : 3.09
CAIKKRSLRSAGNASASA [FS-1345] : 5.16
CARCKRDCLEAGNASASA [FS-1996] : 8.23
CASTVRSLRSAGNASASA [FS-566] : 4.81
CARHRRTPDRAGNASASA [FS-2555] : 4.45
